- Test system: HL 60 cells
- PROTOCOL DESCRIPTION: differentiation induction of HL 60 cells to macrophages (NBT reduction)
- Format: cell-based, human
- CONDITION LABEL: dose ratio test substance/calcitriol for comparable semi-maximum differentiation induction; 96 hours incubation
ENDPOINT LABEL: DR HL 60
Answers are plain numbers.

Consider the following illustrative entries.
{"COMPOUND": "C=C1/C(=C\\C=C2/CCC[C@]3(C)[C@@H]([C@H](C)/C=C/[C@H](O)C4(CCCC)CC4)CC[C@@H]23)C[C@@H](O)C[C@@H]1O [Compound 226a]", "NUMERIC RESULT": 2}
{"COMPOUND": "C=C1C(=CC=C2CCCC3(C)C2CCC3C(C)C=CCCC2(C(=O)CCC)CC2)CC(O)CC1O (stereo not drawn)", "NUMERIC RESULT": 0.2}
{"COMPOUND": "C=C1/C(=C\\C=C2/CCC[C@]3(C)[C@@H]([C@H](C)/C=C/CC4(C(=O)CCCC)CC4)CC[C@@H]23)C[C@@H](O)C[C@@H]1O", "NUMERIC RESULT": 19}
{"COMPOUND": "C=C1/C(=C\\C=C2/CCC[C@]3(C)[C@@H]([C@H](C)CCCC(C)(C)O)CC[C@@H]23)C[C@@H](O)C[C@@H]1O [calcitriol, 1α,25-dihydroxy vitamin D3, reference compound]", "NUMERIC RESULT": 1}

Record DR HL 60 for all entries; do not skip any.
1. C=C1/C(=C\C=C2/CCC[C@]3(C)[C@@H]([C@H](C)/C=C/CC4(C(=O)CCC)CC4)CC[C@@H]23)C[C@@H](O)C[C@@H]1O
2. C=C1/C(=C\C=C2/CCC[C@]3(C)[C@@H]([C@H](C)/C=C/[C@@H](O)C4CC4)CC[C@@H]23)C[C@@H](O)C[C@@H]1O [calcipotriol, reference compound]

1: 1.7; 2: 1

====

For each of the molecules below, state its DR Ca.
- PROTOCOL DESCRIPTION: acute hypercalcemic action (serum-calcium) in rats
- Assay type: in vivo, rat
- CONDITION LABEL: dose ratio test substance/calcitriol for comparable hypercalcemic action; one-time subcutaneous administration, male rats

As a guide, the following entries are already answered.
{"MOLECULE": "C=C1C(=CC=C2CCCC3(C)C2CCC3C(C)C=CCCC2(C(=O)CCCC)CC2)CC(O)CC1O (stereo not drawn)", "DR Ca": ">100"}
{"MOLECULE": "C=C1/C(=C\\C=C2/CCC[C@]3(C)[C@@H]([C@H](C)/C=C/CC4(C(=O)CCCC)CC4)CC[C@@H]23)C[C@@H](O)C[C@@H]1O", "DR Ca": ">100"}

Entry under review: C=C1/C(=C\C=C2/CCC[C@]3(C)[C@@H]([C@H](C)/C=C/[C@@H](O)CCC4(C(=O)CCC)CC4)CC[C@@H]23)C[C@@H](O)C[C@@H]1O [Compound 175b] . Reported DR Ca? >100

====

- Tested on: HL 60 cells
- PROTOCOL DESCRIPTION: differentiation induction of HL 60 cells to macrophages (NBT reduction)
- Format: cell-based, human
- CONDITION LABEL: dose ratio test substance/calcitriol for comparable semi-maximum differentiation induction; 96 hours incubation
Note to self: values exactly at 3 are 1.0. So DR HL 60 at or above 3 is 1.0, below is 0.0.

Worked examples, 4 compounds total:
{"COMPOUND": "C=C1/C(=C\\C=C2/CCC[C@]3(C)[C@@H]([C@H](C)/C=C/[C@@H](O)CCC4(C(C)=O)CC4)CC[C@@H]23)C[C@@H](O)C[C@@H]1O [Compound 168b]", "DISCRETE LABEL": 1.0}
{"COMPOUND": "C=C1/C(=C\\C=C2/CCC[C@]3(C)[C@@H]([C@H](C)/C=C/CCC4(C(C)=O)CC4)CC[C@@H]23)C[C@@H](O)C[C@@H]1O [Compound 126]", "DISCRETE LABEL": 0.0}
{"COMPOUND": "C=C1C(=CC=C2CCCC3(C)C2CCC3C(C)C=CCCC2(C(=O)CCCC)CC2)CC(O)CC1O (stereo not drawn) [Compound 136]", "DISCRETE LABEL": 1.0}
{"COMPOUND": "C=C1/C(=C\\C=C2/CCC[C@]3(C)[C@@H]([C@H](C)/C=C/[C@H](O)C4(CC)CC4)CC[C@@H]23)C[C@@H](O)C[C@@H]1O [Compound 214a]", "DISCRETE LABEL": 0.0}

// switching to the query compound
Would you say C=C1/C(=C\C=C2/CCC[C@]3(C)[C@@H]([C@H](C)[C@@H](O)CCCC4(C(C)=O)CC4)CC[C@@H]23)C[C@@H](O)C[C@@H]1O [Compound 127] shows DR HL 60 at minimum 3? 1.0

Origin of measurements: patent US7071344B1
